Data provenance is FireProtDB (doi:10.1021/bi9621829).

B1: Lysozyme C, P61626 (parent)
chain: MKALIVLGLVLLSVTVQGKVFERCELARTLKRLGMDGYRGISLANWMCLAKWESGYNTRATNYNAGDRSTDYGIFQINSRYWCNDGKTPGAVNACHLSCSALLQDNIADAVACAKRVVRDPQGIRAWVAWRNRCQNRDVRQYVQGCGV

# Variants of: B1
# CONDITION_SET: Homo sapiens; pH 2.7; Thermal; DSC; glycine 0.05 M; reversible: yes; structure 1LZ1; whole UniProt chain shown
# key: entry, value: unfolding enthalpy (van 't Hoff)
Respond with the bare value in kcal/mol.

MKALIVLGLVLLSVTVQGKVFERCELARTLKRLGMDGYRGISLANWMCLAKWESGYNTRATNYNAGDRSTDYGIFQINSRYWCNDGKTPGAVNACHLSCSALLQDNIADAVACAKRVVRDPQGIRAWVAWRNRCQNRDARQYVQGCGV: 112
MKALIVLGLVLLSVTVQGKVFERCELARTLKRLGMDGYRGISLANWMCLAKWESGYNTRATNYNAGDRSTDYGIFQINSRYWCNDGKTPGAVNACHLSCSALLQDNIADAVACAKRVVRDPQGIRAWVAWRNRCQNRDVRQYVQGCGA: 119
MKALIVLGLVLLSVTVQGKVFERCELARTLKRLGMDGYRGISLANWMCLAKWESGYNTRATNYNAGDRSTDYGIFQINSRYWCNDGKTPGAVNACHLSCSALLQDNIADAAACAKRVVRDPQGIRAWVAWRNRCQNRDVRQYVQGCGV: 120
MKALIVLGLVLLSVTVQGKVFERCELARTLKRLGMDGYRGISLANWMCLAKWESGYNTRATNYNAGDRSTDYGIFQINSRYWCNDGKTPGAANACHLSCSALLQDNIADAVACAKRVVRDPQGIRAWVAWRNRCQNRDVRQYVQGCGV: 120

-- ask Entry `MKALIVLGLVLLSVTVQGKVFERCELARTLKRLGMDGYRGISLANWMCLAKWESGYNTRATNYNAGDRSTDYGIFQINSRYWCNDGKTPGAVNACHLSCSALLQDNIADAVACAKRVVRDPQGIRAWAAWRNRCQNRDVRQYVQGCGV` : reported unfolding enthalpy (van 't Hoff) = ?
-- reply 122

-- ask Can you check `MKALIVLGLVLLSVTVQGKVFERCELARTLKRLGMDGYRGISLANWMCLAKWESGYNTRATNYNAGDRSTDYGIFQINSRYWCNDGKTPGAVNACHLSCSALLQDNIADAVACAKRVVRDPQGIRAWVAWRNRCQNRDVRQYAQGCGV` next?
-- reply 116

-- ask Also, `MKALIVLGLVLLSVTVQGKAFERCELARTLKRLGMDGYRGISLANWMCLAKWESGYNTRATNYNAGDRSTDYGIFQINSRYWCNDGKTPGAVNACHLSCSALLQDNIADAVACAKRVVRDPQGIRAWVAWRNRCQNRDVRQYVQGCGV` please.
-- reply 114

-- ask Next variant up: `MKALIVLGLVLLSVTVQGKVFERCELARTLKRLGMDGYRGISLANWMCLAKWESGYNTRATNYNAGDRSTDYGIFQINSRYWCNDGKTPGAVNACHLSCSALLQDNIADAVACAKRVARDPQGIRAWVAWRNRCQNRDVRQYVQGCGV`
-- reply 120

-- ask Please do the same for `MKALIVLGLVLLSVTVQGKVFERCELARTLKRLGMDGYRGISLANWMCLAKWESGYNTRATNYNAGDRSTDYGIFQINSRYWCNDGKTPGAVNACHLSCSALLQDNIADAVACAKRAVRDPQGIRAWVAWRNRCQNRDVRQYVQGCGV` as well.
-- reply 117
